# system-tested: Estrogen receptor beta (Homo sapiens)
# assay-remarks: qHTS assay to identify small molecule antagonists of the estrogen receptor beta (ER-beta) signaling pathway (AID 1259378); also: potency is read from the fitted curve at half-maximal effect
# conditions-used: ER-beta-UAS-bla HEK293T, beta-lactamase FRET ratio, 16 h; series mostly up to 92.4 µM
Inconclusive results are not listed. Calls of active or inactive are those of the source. Calls follow the shape of the dose curve; as a rule, active = well fitted inhibition curve with a large enough effect in the signal ratio in the repeat runs (not every such curve was filed as active); inconclusive = weak or mixed curves, or effect the other way; inactive = no such curve, though single readings can be large or run the other way; the % refers to the signal ratio.
measurement-type: Potency

>>> observed_measurement("ClC(Cl)C(Cl)(Cl)Cl")
"inactive"
>>> observed_measurement("Cc1cnc2c(C(=O)O)c(Cl)ccc2c1")
"inactive"
>>> observed_measurement("CN/C(=N\\[N+](=O)[O-])NCc1cnc(Cl)s1")
"inactive"
>>> observed_measurement("Brc1cccc(-c2ccccc2)c1")
"inactive"
>>> observed_measurement("COc1ccc(Cc2nccc3cc(OC)c(OC)cc23)cc1OC")
"inactive"
>>> observed_measurement("O=C(Cl)c1ccccc1F")
"inactive"

INPUT: Which measured Potency value corresponds to "Cc1ccn2nc(S(=O)(=O)Nc3c(F)cccc3F)nc2n1" ?
OUTPUT: inactive

INPUT: Likewise for "c1ccc(Nc2ccc(Nc3ccccc3)cc2)cc1" ?
OUTPUT: 0.136 µM (active)

INPUT: Same read-out for OCC(Br)CBr (centres undefined) ?
OUTPUT: inactive

INPUT: Repeat for the following compound: "ClCBr"
OUTPUT: inactive

INPUT: Same again, this time with "CN(C)c1ccc(N)cc1"
OUTPUT: 23.7 µM (active)

INPUT: Same question for CC1CN1 (centres undefined) please.
OUTPUT: inactive

---

# system-tested: Progesterone receptor (Homo sapiens) (UniProt P06401)
# Sequence (P06401 whole entry, looked up): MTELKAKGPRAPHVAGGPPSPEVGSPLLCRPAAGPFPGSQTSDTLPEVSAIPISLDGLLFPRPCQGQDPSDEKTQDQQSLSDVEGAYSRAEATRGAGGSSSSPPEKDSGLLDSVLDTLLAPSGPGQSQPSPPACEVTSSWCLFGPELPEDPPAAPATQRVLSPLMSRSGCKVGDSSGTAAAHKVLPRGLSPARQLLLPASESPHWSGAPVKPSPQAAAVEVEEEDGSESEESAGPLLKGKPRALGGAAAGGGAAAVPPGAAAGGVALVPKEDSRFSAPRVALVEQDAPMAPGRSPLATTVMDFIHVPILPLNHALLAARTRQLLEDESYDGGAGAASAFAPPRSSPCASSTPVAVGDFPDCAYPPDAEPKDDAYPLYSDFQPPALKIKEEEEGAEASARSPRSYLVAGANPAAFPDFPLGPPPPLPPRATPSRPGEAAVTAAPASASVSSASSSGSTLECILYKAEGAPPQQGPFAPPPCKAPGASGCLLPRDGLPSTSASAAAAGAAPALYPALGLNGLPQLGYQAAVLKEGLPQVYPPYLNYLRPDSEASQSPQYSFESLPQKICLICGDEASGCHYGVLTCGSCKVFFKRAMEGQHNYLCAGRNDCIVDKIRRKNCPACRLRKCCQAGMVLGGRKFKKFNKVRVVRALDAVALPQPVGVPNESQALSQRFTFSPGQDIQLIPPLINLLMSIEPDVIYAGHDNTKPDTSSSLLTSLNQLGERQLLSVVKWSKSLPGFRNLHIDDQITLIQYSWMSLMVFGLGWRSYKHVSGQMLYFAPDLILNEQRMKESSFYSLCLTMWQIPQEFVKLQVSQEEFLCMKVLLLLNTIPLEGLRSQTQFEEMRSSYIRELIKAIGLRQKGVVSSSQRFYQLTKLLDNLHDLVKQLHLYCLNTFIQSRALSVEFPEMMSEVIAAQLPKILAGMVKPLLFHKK
# assay-remarks: qHTS assay to identify small molecule antagonists of the progesterone receptor (PR) signaling pathway (AID 1346795)
# conditions-used: PR-UAS-bla HEK293T, beta-lactamase FRET ratio, 16 h; series mostly up to 92.4 µM
Inconclusive results are not listed. Calls of active or inactive are those of the source. Calls follow the shape of the dose curve; as a rule, active = well fitted inhibition curve with a large enough effect in the signal ratio in the repeat runs (not every such curve was filed as active); inconclusive = weak or mixed curves; inactive = flat fitted curve, though single readings scatter; the % refers to the signal ratio.
Log the outcome using a class from TRUE = active, FALSE = inactive

INPUT: Outcome logged for "CC(=O)[O-].CC(=O)[O-].CC(=O)[O-].[Cr+3]" in this assay:
OUTPUT: FALSE

INPUT: Quick one: "CC(C)(C)c1ccc(OP(=O)(Oc2ccccc2)Oc2ccccc2)cc1"
OUTPUT: TRUE

INPUT: Further, for "CCCCN(CCCC)C(=S)[S-].CCCCN(CCCC)C(=S)[S-].[Ni+2]" ?
OUTPUT: FALSE

INPUT: Same lookup for "Oc1cc(Cl)c(Cl)c(Cl)c1Cl" , please.
OUTPUT: TRUE

INPUT: How about NC1CCC(CC2CCC(N)CC2)CC1 (configuration not stated) ?
OUTPUT: FALSE

INPUT: Same for CC[N+]1(CC)CCC(OC(=O)C(O)(c2ccccc2)c2ccccc2)C1 (configuration not stated)
OUTPUT: FALSE

INPUT: Moving on to the next molecule: "C[C@]12CC[C@H]3[C@@H](CCC4=CC(=O)CC[C@@H]43)[C@@H]1CC[C@@H]2OC(=O)CCc1ccco1"
OUTPUT: FALSE

INPUT: Now this one: "N#CC(C#N)=NNc1cccc(Cl)c1"
OUTPUT: TRUE

INPUT: Please give the result for CN1C2CCC(C)(C)C1CC(OC(=O)C(O)(c1cccs1)c1cccs1)C2 (configuration not stated) too.
OUTPUT: FALSE

INPUT: Entry to check: CC(Cc1ccc(O)cc1)NCC(O)c1cc(O)cc(O)c1 (configuration not stated)
OUTPUT: FALSE

INPUT: // next record "COc1cnc(OC)n2nc(NS(=O)(=O)c3c(OCC(F)F)cccc3C(F)(F)F)nc12"
OUTPUT: FALSE

INPUT: And what about the molecule "N#CSCc1ccccc1" ?
OUTPUT: FALSE

INPUT: Now try "C[C@@H]1CC2=CC(=O)CC[C@@H]2[C@H]2CC[C@@]3(C)[C@@H](CC[C@]3(C)O)[C@@H]21" .
OUTPUT: FALSE

INPUT: Continue with "COC(=O)c1cc(Oc2ccc(Cl)cc2Cl)ccc1[N+](=O)[O-]"
OUTPUT: TRUE

INPUT: Could you do the same for "CO/N=C(\C(=O)OC)c1ccccc1CO/N=C(\C)c1cccc(C(F)(F)F)c1" , please?
OUTPUT: TRUE

INPUT: Quick one: "CNC(=O)/C=C(\C)OP(=O)(OC)OC"
OUTPUT: FALSE

INPUT: Also check "O=NN(CCO)CCO"
OUTPUT: FALSE
